EXPERIMENTAL SYSTEM: Gastrin/cholecystokinin type B receptor (Cavia porcellus)
MEASUREMENT PROTOCOL: The compound was tested for the inhibition of [125I]-Bolton-Hunter CCK-8 binding to cholecystokinin type B receptor in guinea pig cerebral cortical; Not determined
IC50 by entry:

CCCCCN(CCCCC)C(=O)[C@@H](Cc1c(Sc2ccccc2[N+](=O)[O-])[nH]c2ccccc12)NC(=O)c1cnc2ccccc2c1 = > 10 µM

Now, please, on to the next molecule.
Quick one: IC50 for CCCCCN(CCCCC)C(=O)[C@@H](Cc1c[nH]c2ccccc12)NC(=O)/C=C/c1cccnc1 ?
> 10 µM

====

EXPERIMENTAL SYSTEM: Gastrin/cholecystokinin type B receptor (Cavia porcellus)
MEASUREMENT PROTOCOL: The compound was tested for the inhibition of [125I]-Bolton-Hunter CCK-8 binding to cholecystokinin type B receptor in guinea pig cerebral cortical
REPORTED ENDPOINT: IC50 (µM)
Quick note: give the figure in µM, leave out the unit.

Tell me reported IC50 for CCCCCN(CCCCC)C(=O)[C@@H](Cc1c[nH]c2ccccc12)NC(=O)c1cccc2ccccc12 , tested with Gastrin/cholecystokinin type B receptor (Cavia porcellus).
9.7

Tell me reported IC50 for CN(Cc1ccccc1)C(=O)[C@@H](Cc1c[nH]c2ccccc12)NC(=O)c1cnc2ccccc2c1 , tested with Gastrin/cholecystokinin type B receptor (Cavia porcellus).
10

Tell me reported IC50 for CCCCCN(CCCCC)C(=O)[C@@H](Cc1c[nH]c2ccccc12)NC(=O)c1ccc2ccccc2c1 , tested with Gastrin/cholecystokinin type B receptor (Cavia porcellus).
11

Tell me reported IC50 for CCOC(=O)CN(Cc1ccccc1)C(=O)[C@@H](Cc1c[nH]c2ccccc12)NC(=O)c1cnc2ccccc2c1 , tested with Gastrin/cholecystokinin type B receptor (Cavia porcellus).
9.2

Tell me reported IC50 for CCCCCN(CCCCC)C(=O)[C@@H](CC1C(=O)Nc2ccccc21)NC(=O)c1cnc2ccccc2c1 (stereo not given in full) , tested with Gastrin/cholecystokinin type B receptor (Cavia porcellus).
4.1

Tell me reported IC50 for CCCCCN(CCCCC)C(=O)[C@@H](Cc1c[nH]c2ccccc12)NC(=O)c1c[nH]c2ccccc12 , tested with Gastrin/cholecystokinin type B receptor (Cavia porcellus).
20
